Entries and their pIC50
Tested on: 885724-159-R-J1-PDC spheroids viability
Test: Anticancer human tumor 885724-159-R-J1-PDC patient-derived pancreatic adenocarcinoma cell line growth inhibition [TAK]
Conditions: curve of first compound; second compound 30 µM; spheroids with HUVEC and MSC
pIC50: −log10 of the molar value.

// worked examples, pIC50 included
Cc1nc(NC(=O)N2CCCC2C(N)=O)sc1-c1ccnc(C(C)(C)C(F)(F)F)c1 (stereo not drawn) + CC(C)NCC(C(=O)N1CCN(c2ncnc3c2C(C)CC3O)CC1)c1ccc(Cl)cc1	> 7.50
CC(=O)Nc1cccc(-n2c(=O)n(C3CC3)c(=O)c3c(Nc4ccc(I)cc4F)n(C)c(=O)c(C)c32)c1 + CC(C)NCC(C(=O)N1CCN(c2ncnc3c2C(C)CC3O)CC1)c1ccc(Cl)cc1	> 10.02

Now, please, on to the next molecule.
According to the records, this molecule CC(C)CC(NC(=O)CNC(=O)c1cc(Cl)ccc1Cl)B1OC(=O)CC(CC(=O)O)(C(=O)O)O1 (stereo not drawn) + CC(C)NCC(C(=O)N1CCN(c2ncnc3c2C(C)CC3O)CC1)c1ccc(Cl)cc1 displays pIC50 of > 9.50

====

Test system: 885724-159-R-J1-PDC spheroids viability
Experiment: Anticancer human tumor 885724-159-R-J1-PDC cell line growth inhibition [TAK];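 also: spheroids exposed to drugs for seven days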;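 as to viability, T/C: 100% = DMSO vehicle control viability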
Details: second compound 9.49 µM; first compound 0.001 µM; stronger effect = lower value; spheroids with HUVEC and MSC
property: viability, T/C (%)
Value expressed in %; do not type the unit.

// worked examples, viability, T/C included
CC(C)CC(NC(=O)CNC(=O)c1cc(Cl)ccc1Cl)B1OC(=O)CC(CC(=O)O)(C(=O)O)O1 (centres undefined) + CC(C)NCC(C(=O)N1CCN(c2ncnc3c2C(C)CC3O)CC1)c1ccc(Cl)cc1	52.1
CC(C)CC(NC(=O)C(Cc1ccccc1)NC(=O)c1cnccn1)B(O)O (centres undefined) + CC(C)NCC(C(=O)N1CCN(c2ncnc3c2C(C)CC3O)CC1)c1ccc(Cl)cc1	49
CC(C)n1nc(-c2ccc3oc(N)nc3c2)c2c(N)ncnc21 + CC(C)NCC(C(=O)N1CCN(c2ncnc3c2C(C)CC3O)CC1)c1ccc(Cl)cc1	45.6

Now, please, on to the next compound.
Log: 885724-159-R-J1-PDC spheroids viability, compound COC1CC2CCC(C)C(O)(O2)C(=O)C(=O)N2CCCCC2C(=O)OC(C(C)CC2CCC(OCCO)C(OC)C2)CC(=O)C(C)C=C(C)C(O)C(OC)C(=O)C(C)CC(C)C=CC=CC=C1C (centres undefined) + CC(C)NCC(C(=O)N1CCN(c2ncnc3c2C(C)CC3O)CC1)c1ccc(Cl)cc1 , viability, T/C = 49.6

====

Test system: 885724-159-R-J1-PDC spheroids viability
Test: Anticancer human tumor 885724-159-R-J1-PDC cell line growth inhibition [TAK];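 also: spheroids exposed to drugs for seven days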;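 as to viability, T/C: 100% = DMSO vehicle control viability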
Details: second compound 0.3 µM; first compound 0.316 µM; stronger effect = lower value; spheroids with HUVEC and MSC
property: viability, T/C (%)
Value expressed in %; do not type the unit.

COc1c(OCCCN2CCOCC2)ccc2c3n(c(=NC(=O)c4cnc(N)nc4)nc12)CCN3 + CC(C)NCC(C(=O)N1CCN(c2ncnc3c2C(C)CC3O)CC1)c1ccc(Cl)cc1	13.4
CCCS(=O)(=O)Nc1ccc(F)c(C(=O)c2c[nH]c3ncc(-c4ccc(Cl)cc4)cc23)c1F + CC(C)NCC(C(=O)N1CCN(c2ncnc3c2C(C)CC3O)CC1)c1ccc(Cl)cc1	79.3
Cc1nc(NC(=O)N2CCCC2C(N)=O)sc1-c1ccnc(C(C)(C)C(F)(F)F)c1 (centres undefined) + CC(C)NCC(C(=O)N1CCN(c2ncnc3c2C(C)CC3O)CC1)c1ccc(Cl)cc1	47.6

Now, please, on to the next compound.
According to the records, this compound CC(C)(C)c1nc(-c2cccc(NS(=O)(=O)c3c(F)cccc3F)c2F)c(-c2ccnc(N)n2)s1 + CC(C)NCC(C(=O)N1CCN(c2ncnc3c2C(C)CC3O)CC1)c1ccc(Cl)cc1 displays viability, T/C of 112
